Assay: Rat pharmacokinetics assay
Format: in vivo, Sprague-Dawley (SD) rats
Details: both sexes, Sprague-Dawley, plasma, oral 10 mg/kg, read-out: Area under curve AUC
PARAMETER_MEASURED: AUC (ng·h/mL)

# example entries with known answers
CCNC(=O)Nc1ccc(-n2nc3c(c2CN(C)C)c(=O)n(-c2cccc(OC)c2F)c(=O)n3Cc2c(F)cccc2F)cc1; 1070
CNC(=O)Nc1ccc(-n2nc3c(c2CN(C)C)c(=O)n(-c2cccc(OC)c2F)c(=O)n3Cc2c(F)cccc2F)cc1; 1290
CONC(=O)Nc1ccc(-n2nc3c(c2CN(C)C)c(=O)n(-c2ccc(OC)nn2)c(=O)n3Cc2c(F)cccc2F)cc1; 4090
CNC(=O)Nc1ccc(-n2nc3c(c2CN(C)C)c(=O)n(-c2ccc(OC)nn2)c(=O)n3Cc2c(F)cccc2F)cc1; 628
CONC(=O)Nc1ccc(-n2nc3c(c2CN(C)C)c(=O)n(-c2cccc(OC)c2F)c(=O)n3Cc2c(F)cccc2F)cc1; 1550

(P) CCNC(=O)Nc1ccc(-n2nc3c(c2CN(C)C)c(=O)n(-c2ccc(OC)nn2)c(=O)n3Cc2c(F)cccc2F)cc1
(Q) CCNC(=O)Nc1ccc(-c2cn3c(c2CN(C)C)c(=O)n(-c2cccc(OC)c2F)c(=O)n3Cc2c(F)cccc2F)cc1
Prompt: Kindly identify the item with the lower AUC figure among these two: P and Q Respond with the label that goes with your answer.
Response: Q
(Q: 389 ng·h/mL, P: 1240 ng·h/mL)

----------
Target: rabbit GnRHr (Oryctolagus cuniculus, UniProt Q5U7L3)
Sequence (Q5U7L3 1-328): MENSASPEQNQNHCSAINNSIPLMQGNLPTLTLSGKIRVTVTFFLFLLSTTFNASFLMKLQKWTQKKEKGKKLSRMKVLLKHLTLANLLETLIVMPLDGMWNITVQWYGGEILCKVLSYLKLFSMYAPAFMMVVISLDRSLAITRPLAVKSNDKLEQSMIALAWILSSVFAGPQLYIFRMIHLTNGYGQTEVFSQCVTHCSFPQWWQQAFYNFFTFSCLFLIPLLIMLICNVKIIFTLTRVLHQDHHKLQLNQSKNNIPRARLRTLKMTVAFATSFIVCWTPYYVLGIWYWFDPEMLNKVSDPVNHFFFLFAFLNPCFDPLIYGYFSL
Test: Rabbit GnRHr inhibitory activity assay, rabbit GnRHr/CHO stably transfected cell lines
Details: rabbit GnRHr/CHO cells, GnRH polypeptide stimulant, Fluo-4
Listing of entries alongside the reported IC50.
Respond numerically; units are nM and should not be typed.

CONC(=O)Nc1ccc(-n2nc3c(c2CN(C)C)c(=O)n(-c2ccc(OC)nn2)c(=O)n3Cc2c(F)cccc2F)cc1 [Example 11]; 0.57
CNC(=O)Nc1ccc(-n2nc3c(c2CN(C)C)c(=O)n(-c2ccc(OC)nn2)c(=O)n3Cc2c(F)cccc2F)cc1 [Example 9]; 0.24

Okay, next one:
Prompt: Name the recorded IC50 for CNC(=O)Nc1ccc(-n2nc3c(c2CN(C)C)c(=O)n(-c2cccc(OC)c2F)c(=O)n3Cc2c(F)cccc2C(F)(F)F)cc1 [Example 8] .
Response: 0.27

----------
Experiment: Rabbit pharmacokinetics assay
Format: in vivo, New Zealand rabbits
Settings: female, New Zealand, plasma, intravenous injection 5 mg/kg, read-out: Area under curve AUC
PARAMETER_MEASURED: AUC (ng·h/mL)
Respond numerically; units are ng·h/mL and should not be typed.

Prompt: Name the recorded AUC for `CONC(=O)Nc1ccc(-n2nc3c(c2CN(C)C)c(=O)n(-c2ccc(OC)nn2)c(=O)n3Cc2c(F)cccc2F)cc1` .
Response: 3410

----------
Test: Seven-day toxicokinetic evaluation in rats
Parameters: species or system SD rats
Conditions: female, SD, rat, in vivo, po, 720 mg/kg, AUC0-t
PARAMETER_MEASURED: AUC0-t (µg·h/mL)
Respond numerically; units are µg·h/mL and should not be typed.

Prompt: Name the recorded AUC0-t for CONC(=O)Nc1ccc(-n2nc3c(c2CN(C)C)c(=O)n(-c2ccc(OC)nn2)c(=O)n3Cc2c(F)cccc2F)cc1 [Example 11] .
Response: 1550

----------
Test: Beagle pharmacokinetics assay
Assay type: in vivo, beagles
Details: both sexes, dog, plasma, oral 5 mg/kg, read-out: Area under curve AUC
PARAMETER_MEASURED: AUC (ng·h/mL)
Respond numerically; units are ng·h/mL and should not be typed.

Prompt: Name the recorded AUC for `CONC(=O)Nc1ccc(-n2nc3c(c2CN(C)C)c(=O)n(-c2ccc(OC)nn2)c(=O)n3Cc2c(F)cccc2F)cc1` .
Response: 5940

----------
Molecular target: human GnRHr (Homo sapiens (Human))
Sequence (P30968 whole entry): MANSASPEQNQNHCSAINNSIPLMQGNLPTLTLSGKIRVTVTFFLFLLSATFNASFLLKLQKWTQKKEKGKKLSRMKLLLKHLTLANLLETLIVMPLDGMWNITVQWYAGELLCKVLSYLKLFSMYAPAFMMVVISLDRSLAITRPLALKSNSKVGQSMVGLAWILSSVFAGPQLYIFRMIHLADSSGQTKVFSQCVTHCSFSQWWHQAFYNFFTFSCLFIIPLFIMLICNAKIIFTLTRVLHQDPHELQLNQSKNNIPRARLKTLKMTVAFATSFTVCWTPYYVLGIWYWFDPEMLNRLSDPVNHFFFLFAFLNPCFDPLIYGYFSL
Test: Human GnRHr (GnRH receptor) activity assay, Fluo-4 calcium signal in Human GnRHr/CHO stably transfected cell lines
Conditions: Human GnRHr/CHO cells, GnRH polypeptide stimulant
pIC50: −log10 of the molar value.
PARAMETER_MEASURED: pIC50

# example entries with known answers
CCNC(=O)Nc1ccc(-n2nc3c(c2CN(C)C)c(=O)n(-c2cccc(OC)c2F)c(=O)n3Cc2c(F)cccc2F)cc1; 9.05
CONC(=O)Nc1ccc(-n2nc3c(c2CN(C)C)c(=O)n(-c2ccc(OC)nn2)c(=O)n3Cc2c(F)cccc2F)cc1; 8.31

(I) CNC(=O)Nc1ccc(-c2cn3c(c2CN(C)C)c(=O)n(-c2cccc(OC)c2F)c(=O)n3Cc2c(F)cccc2F)cc1
(II) CONC(=O)Nc1ccc(-c2cn3c(c2CN(C)C)c(=O)n(-c2cccc(OC)c2F)c(=O)n3Cc2c(F)cccc2F)cc1
Prompt: Kindly identify the item with the lower pIC50 figure among these two: I and II Respond with the label that goes with your answer.
Response: II

----------
Test: Rat pharmacokinetics assay
Format: in vivo, Sprague-Dawley (SD) rats
Conditions: both sexes, Sprague-Dawley, plasma, iv, i.v. 5 mg/kg, read-out: Area under curve AUC
PARAMETER_MEASURED: AUC (ng·h/mL)
Respond numerically; units are ng·h/mL and should not be typed.

Prompt: Name the recorded AUC for `CONC(=O)Nc1ccc(-n2nc3c(c2CN(C)C)c(=O)n(-c2ccc(OC)nn2)c(=O)n3Cc2c(F)cccc2F)cc1` .
Response: 2670

----------
Assay: Rabbit pharmacokinetics assay
Assay type: in vivo, New Zealand rabbits
Conditions: female, New Zealand, plasma, oral 30 mg/kg, read-out: Apparent volume of distribution Vz/F
PARAMETER_MEASURED: Vd/F (L/kg)
Respond numerically; units are L/kg and should not be typed.

Prompt: Name the recorded Vd/F for `CONC(=O)Nc1ccc(-n2nc3c(c2CN(C)C)c(=O)n(-c2ccc(OC)nn2)c(=O)n3Cc2c(F)cccc2F)cc1` .
Response: 10.7

----------
Assay: Rabbit pharmacokinetics assay
Format: in vivo, New Zealand rabbits
Conditions: female, New Zealand, plasma, oral 30 mg/kg, read-out: Area under curve AUC
PARAMETER_MEASURED: AUC (ng·h/mL)
Respond numerically; units are ng·h/mL and should not be typed.

Prompt: Name the recorded AUC for CONC(=O)Nc1ccc(-n2nc3c(c2CN(C)C)c(=O)n(-c2ccc(OC)nn2)c(=O)n3Cc2c(F)cccc2F)cc1 [Example 11] .
Response: 19000

----------
Assay: Beagle pharmacokinetics assay
Format: in vivo, beagles
Details: both sexes, dog, plasma, oral 5 mg/kg, read-out: Residence time MRT
Description: Test Example 6. Beagle Pharmacokinetics Assay of Example 11 of the Present Invention Beagles were used as test animals. The plasma concentrations at various times were determined by LC/MS/MS after intragastric administration of the compound of Example 11, and intravenous administration of the compound of Example 11 to beagles. The pharmacokinetic behavior of the present compound in beagles was studied, and the pharmacokinetic features were evaluated. […]
PARAMETER_MEASURED: MRT (h)
Respond numerically; units are h and should not be typed.

Prompt: Name the recorded MRT for `CONC(=O)Nc1ccc(-n2nc3c(c2CN(C)C)c(=O)n(-c2ccc(OC)nn2)c(=O)n3Cc2c(F)cccc2F)cc1` .
Response: 6.4

----------
Test: Beagle pharmacokinetics assay
Assay type: in vivo, beagles
Details: both sexes, dog, plasma, oral 5 mg/kg, read-out: Half-life T1/2 (converted)
PARAMETER_MEASURED: half-life (h)
Respond numerically; units are h and should not be typed.

Prompt: Name the recorded half-life for `CONC(=O)Nc1ccc(-n2nc3c(c2CN(C)C)c(=O)n(-c2ccc(OC)nn2)c(=O)n3Cc2c(F)cccc2F)cc1` .
Response: 5.37

----------
Test: Seven-day toxicokinetic evaluation in rats
Parameters: species or system SD rats
Settings: both sexes, SD, rat, in vivo, po
PARAMETER_MEASURED: NOAEL at 7 days (mg/kg)
Respond numerically; units are mg/kg and should not be typed.

Prompt: Name the recorded NOAEL at 7 days for CONC(=O)Nc1ccc(-n2nc3c(c2CN(C)C)c(=O)n(-c2ccc(OC)nn2)c(=O)n3Cc2c(F)cccc2F)cc1 [Example 11] .
Response: 240

----------
Experiment: Seven-day toxicokinetic evaluation in rats
Parameters: species or system SD rats
Conditions: female, SD, rat, in vivo, po, 720 mg/kg, tmax
PARAMETER_MEASURED: tmax (h)
Respond numerically; units are h and should not be typed.

Prompt: Name the recorded tmax for `CONC(=O)Nc1ccc(-n2nc3c(c2CN(C)C)c(=O)n(-c2ccc(OC)nn2)c(=O)n3Cc2c(F)cccc2F)cc1` .
Response: 16

----------
Assay: Rat pharmacokinetics assay
Type: in vivo, Sprague-Dawley (SD) rats
Details: both sexes, Sprague-Dawley, plasma, oral 10 mg/kg, read-out: Plasma concentration Cmax
PARAMETER_MEASURED: Cmax (ng/mL)

# example entries with known answers
CONC(=O)Nc1ccc(-n2nc3c(c2CN(C)C)c(=O)n(-c2cccc(OC)c2F)c(=O)n3Cc2c(F)cccc2F)cc1; 746
CONC(=O)Nc1ccc(-n2nc3c(c2CN(C)C)c(=O)n(-c2ccc(OC)nn2)c(=O)n3Cc2c(F)cccc2F)cc1; 2440
CNC(=O)Nc1ccc(-n2nc3c(c2CN(C)C)c(=O)n(-c2ccc(OC)nn2)c(=O)n3Cc2c(F)cccc2F)cc1; 146

(A) CCNC(=O)Nc1ccc(-c2cn3c(c2CN(C)C)c(=O)n(-c2cccc(OC)c2F)c(=O)n3Cc2c(F)cccc2F)cc1
(B) CCNC(=O)Nc1ccc(-n2nc3c(c2CN(C)C)c(=O)n(-c2ccc(OC)nn2)c(=O)n3Cc2c(F)cccc2F)cc1
Prompt: So which one has the bigger Cmax here, A or B ? Respond with the label that goes with your answer.
Response: B

(P) CCNC(=O)Nc1ccc(-n2nc3c(c2CN(C)C)c(=O)n(-c2cccc(OC)c2F)c(=O)n3Cc2c(F)cccc2F)cc1
(Q) CNC(=O)Nc1ccc(-n2nc3c(c2CN(C)C)c(=O)n(-c2cccc(OC)c2F)c(=O)n3Cc2c(F)cccc2F)cc1
Prompt: Kindly identify the item with the lower Cmax figure among these two: P and Q Respond with the label that goes with your answer.
Response: P
(P: 237 ng/mL, Q: 690 ng/mL)

Every entry's value here was drawn from patent US10344034B2.
